Cited source: ChEMBL document CHEMBL5727507

- targetEntity: Induced myeloid leukemia cell differentiation protein Mcl-1 (Homo sapiens, UniProt Q07820)
- Sequence (Q07820 whole entry): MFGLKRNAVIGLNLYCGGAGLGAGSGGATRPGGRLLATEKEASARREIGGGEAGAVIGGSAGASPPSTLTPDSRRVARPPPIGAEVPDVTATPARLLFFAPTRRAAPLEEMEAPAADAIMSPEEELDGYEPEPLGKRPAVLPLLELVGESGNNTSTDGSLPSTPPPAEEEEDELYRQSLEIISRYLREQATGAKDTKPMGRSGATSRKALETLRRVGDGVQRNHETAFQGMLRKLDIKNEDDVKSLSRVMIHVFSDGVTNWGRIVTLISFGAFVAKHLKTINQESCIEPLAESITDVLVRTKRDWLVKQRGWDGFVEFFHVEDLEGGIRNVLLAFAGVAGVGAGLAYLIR
- assayText: Fluorescence Polarization Anisotropy Competition Assay: Compound affinity was measured using a fluorescence polarization anisotropy competition assay. Anisotropy measurements were carried out in 384-well, black, flat-bottom plates (Greiner Bio-one, Monroe, N.C., USA).
pKi: −log10 of the molar value.
# pKi per record follows

# example entries with known answers
itemSmiles: Cc1cc(OCCCc2c3n(c4c(-c5c(C)nn(C)c5C)c(Cl)ccc24)CCCN(c2ccc(C(=O)O)c4ncccc24)C3=O)cc(C)c1Cl
pKi: > 7.30

itemSmiles: Cc1cc(OCCCc2c(C(=O)N[C@@H]3CCC[C@@H](C(=O)O)C3)[nH]c3c(-c4c(C)nn(C)c4C)cccc23)cc(C)c1Cl
pKi: > 7.30

itemSmiles: Cc1cc(OCCCc2c3n(c4c(-c5c(C)nn(C)c5C)c(Cl)ccc24)[C@H](C)CN(c2ccc(C(=O)O)c4ncccc24)C3=O)cc(C)c1Cl
pKi: > 7.30

itemSmiles: Cc1cc(OCCCc2c(C(=O)NCc3cc(C(=O)O)cc(Cl)n3)[nH]c3c(-c4c(C)nn(C)c4C)cccc23)cc(C)c1Cl
pKi: > 7.30

Need pKi, item Cc1cc(OCCCc2c3n(c4c(-c5c(C)nn(C)c5C)c(Cl)ccc24)CCCN(c2ccc(C(=O)O)c4c2ccn4C)C3=O)cc(C)c1Cl
> 7.30

Need pKi, item Cc1cc(OCCCc2c(C(=O)N3CCN(c4ccc(C(=O)O)cc4)CC3)n(CCN3CCOCC3)c3c(-c4c(C)nn(C)c4C)c(Cl)ccc23)cc(C)c1Cl
> 7.30

Need pKi, item Cc1cc(OCCCc2c3n(c4c(-c5c(C)nn(C)c5C)cccc24)CCCN(c2ccnc4c(C(=O)O)cccc24)C3=O)cc(C)c1Cl
> 7.30

Need pKi, item Cc1cc(OCCCc2c(C(=O)N[C@H]3CC[C@@H](C(=O)O)CC3)[nH]c3c(-c4c(C)nn(C)c4C)cccc23)cc(C)c1Cl
> 7.30

Need pKi, item Cc1cc(OCCCc2c(C(=O)N(C)c3ccc(C(=O)O)cc3)[nH]c3c(-c4c(C)nn(C)c4C)c(Cl)ccc23)cc(C)c1Cl
> 7.30
